concentration listing for selected molecules.
test system: Rattus norvegicus; assay: Plasma concentration in Sprague-Dawley rat electrical current-induced arterial thrombosis model at 1 mg/kg, iv administered 5 mins before electrical stimulation for 20 mins; assay type: ADME, organism-based; parameters: dose 1 mg/kg, route intravenous; conditions: in vivo

smiles_code=Cc1cnc(NCC(F)(F)c2ccccc2)c(=O)n1CC(=O)NCCONC(=N)N assay_result="310 nM"

Field: next molecule
Sure, the documented concentration for N#Cc1cnc(NCC(F)(F)c2ccccc2)c(=O)n1CC(=O)NCCON=C(N)N is 380 nM

---

assay: in vitro; conditions: human, Caco-2
Measurement Kind: Papp A→B
Answer as a quantity: numeral, then unit.

Here are 2 compounds together with their reported answers.
smiles_code=Cc1cnc(NCCc2ccc(F)c(F)c2)c(=O)n1CC(=O)NCCONC(=N)N measurement_kind="Papp A→B" assay_result="0.92 ×10⁻⁶ cm/s"
smiles_code=Cc1cnc(NCCc2ccc(F)cc2)c(=O)n1CC(=O)NCCONC(=N)N measurement_kind="Papp A→B" assay_result="0.55 ×10⁻⁶ cm/s"

compound CCc1ccc(CCNc2ncc(C)n(CC(=O)NCCONC(=N)N)c2=O)cc1 , Papp A→B observed: 0.29 ×10⁻⁶ cm/s

Note to self: Papp A→B recorded for Cc1cnc(NCCc2ccc(F)cc2F)c(=O)n1CC(=O)NCCONC(=N)N was 0.5 ×10⁻⁶ cm/s

Sure, the documented Papp A→B for Cc1cnc(NCC(F)(F)c2ccccc2)c(=O)n1CC(=O)NCCONC(=N)N is 1.37 ×10⁻⁶ cm/s

---

test: Tmax in healthy human at 4 to 500 mg po; settings: in vivo
Measurement Kind: Tmax (h)
Numeric answer only, unit h assumed.

# compound Cc1cnc(NCC(F)(F)c2ccccc2)c(=O)n1CC(=O)NCCONC(=N)N ; its Tmax = 1.25

---

assay: Plasma concentration in Sprague-Dawley rat deep vein thrombosis model at 0.3 mg/kg, iv administered for 45 mins measured after 30 mins post dose; assay type: ADME, organism-based; set-up: dose 0.3 mg/kg, route intravenous
Measurement Kind: concentration at 0.5 h (nM)
# number only, unit nM dropped from output

concentration at 0.5 h reading for Cc1cnc(NCC(F)(F)c2ccccc2)c(=O)n1CC(=O)NCCONC(=N)N : 540

---

assay: Plasma concentration in Sprague-Dawley rat deep vein thrombosis model at 30 mg/kg, po measured after 70 mins post; type: ADME, organism-based; parameters: dose 30 mg/kg, route oral
Measurement Kind: concentration at 70 min (nM)
Give a bare numeral; the unit nM is implied.

Looking up Cc1cnc(NCC(F)(F)c2ccccc2)c(=O)n1CC(=O)NCCONC(=N)N , I found its concentration at 70 min recorded as 760

---

experiment: Plasma concentration in Sprague-Dawley rat deep vein thrombosis model at 0.1 mg/kg, iv administered for 45 mins measured after 30 mins post dose; assay type: ADME, organism-based; parameters: dose 0.1 mg/kg, route intravenous
Measurement Kind: concentration at 0.5 h (nM)
Hi! Could you send only the number? It should be in nM, unit omitted.

Lookup result for Cc1cnc(NCC(F)(F)c2ccccc2)c(=O)n1CC(=O)NCCONC(=N)N ; measured concentration at 0.5 h: 310

---

// reported Cmax for each item listed
assay: Cmax in dog at 10 mg/kg, po; assay type: ADME, organism-based, Canis lupus familiaris; design: dose 10 mg/kg, route oral; settings: in vivo
State just the number; it will be interpreted in µM.

Some entries whose results are on file:
smiles_code=Cc1cnc(NCC(F)(F)c2ccccc2)c(=O)n1CC(=O)NCCONC(=N)N scale_unit=µM assay_result=5.7
smiles_code=N=C(N)NOCCNC(=O)Cn1c(Cl)cnc(NCC(F)(F)c2ccccc2)c1=O scale_unit=µM assay_result=1.6

Measured Cmax, N#Cc1cnc(NCC(F)(F)c2ccccc2)c(=O)n1CC(=O)NCCON=C(N)N : 3.3
